# Test system: HCI-019 (organoid from a triple-negative breast cancer xenograft)
# testDetails: CTG-3D luminescence at 96 h relative to day-0 seeding control (ratio to day 0); higher = more growth / less cytotoxicity; PDxO 3D drug screen (set 2), 96 h, CTG-3D normalised to day-0 seeding control.
# studyConditions: 0.00025 µM; days in culture: 215
Listing: CTG-3D luminescence at 96 h of selected compounds
Just the number, please, no unit after it.

Worked examples follow.
CO[C@H]1C[C@@H]2CC[C@@H](C)[C@@](O)(O2)C(=O)C(=O)N2CCCC[C@H]2C(=O)O[C@H]([C@H](C)C[C@@H]2CC[C@@H](OCCO)[C@H](OC)C2)CC(=O)[C@H](C)/C=C(\C)[C@@H](O)[C@@H](OC)C(=O)[C@H](C)C[C@H](C)/C=C/C=C/C=C/1C :: 0.554
CC(=O)c1c(C)c2cnc(Nc3ccc(N4CCNCC4)cn3)nc2n(C2CCCC2)c1=O :: 1.31
Cc1c(CN2CCN(C(=O)[C@H](C)O)CC2)sc2c(N3CCOCC3)nc(-c3cnc(N)nc3)nc12 :: 1.33

// switching to the query compound
[ask] Give the measured CTG-3D luminescence at 96 h of `CC(C)n1nc(-c2ccc3oc(N)nc3c2)c2c(N)ncnc21` .
[reply] 1.21

###

# Tested on: HCI-016 (organoid from a triple-negative breast cancer xenograft)
# testDetails: CTG-3D luminescence at 96 h relative to day-0 seeding control (ratio to day 0); higher = more growth / less cytotoxicity; PDxO 3D drug screen (set 2), 96 h, CTG-3D normalised to day-0 seeding control.
# studyConditions: 625 fM; days in culture: 327
quantityKind: CTG-3D luminescence at 96 h
Write the number on its own, no unit after it.

COc1cccc2c1C(=O)c1c(O)c3c(c(O)c1C2=O)C[C@@](O)(C(=O)CO)C[C@@H]3O[C@H]1C[C@H](N)[C@@H](O)[C@H](C)O1 [epirubicin] :: 1.16
CC(C)n1nc(-c2ccc3oc(N)nc3c2)c2c(N)ncnc21 [sapanisertib] :: 1.7
Nc1cc(C(F)(F)F)c(-c2cc(N3CCOCC3)nc(N3CCOCC3)n2)cn1 [buparlisib] :: 1.23

[ask] Given the entry CO[C@H]1C[C@@H]2CC[C@@H](C)[C@@](O)(O2)C(=O)C(=O)N2CCCC[C@H]2C(=O)O[C@H]([C@H](C)C[C@@H]2CC[C@@H](O)[C@H](OC)C2)CC(=O)[C@H](C)/C=C(\C)[C@@H](O)[C@@H](OC)C(=O)[C@H](C)C[C@H](C)/C=C/C=C/C=C/1C [rapamycin] , report its measured CTG-3D luminescence at 96 h.
[reply] 0.782

###

# Test system: HCI-005.E2 (organoid from a breast cancer xenograft with a HER2-positive history)
# testDetails: CTG-3D luminescence at 96 h relative to day-0 seeding control (ratio to day 0); higher = more growth / less cytotoxicity; PDxO 3D drug screen, 96 h, CTG-3D normalised to day-0 seeding control.
# studyConditions: 0.00025 µM
Label true (1) for high-side CTG-3D luminescence at 96 h (at or above 2) and false (0) for low-side CTG-3D luminescence at 96 h (below it).

# example entries with known answers
COc1cccc2c1C(=O)c1c(O)c3c(c(O)c1C2=O)C[C@@](O)(C(=O)CO)C[C@@H]3O[C@H]1C[C@H](N)[C@H](O)[C@H](C)O1 [doxorubicin] :: false (0)
CCN1CCN(Cc2ccc(Nc3ncc(F)c(-c4cc(F)c5nc(C)n(C(C)C)c5c4)n3)nc2)CC1 [abemaciclib] :: true (1)
Cc1cc(Nc2ncc(Cl)c(Nc3ccccc3S(=O)(=O)C(C)C)n2)c(OC(C)C)cc1C1CCNCC1 [ceritinib] :: false (0)
CCc1c2c(nc3ccc(O)cc13)-c1cc3c(c(=O)n1C2)COC(=O)[C@]3(O)CC [SN-38] :: false (0)
C[C@]12CC[C@@H]3c4ccc(O)cc4C[C@@H](CCCCCCCCC[S+]([O-])CCCC(F)(F)C(F)(F)F)[C@H]3[C@@H]1CC[C@@H]2O (some centres not stated) [fulvestrant] :: true (1)

Consider the additional compound presented here.
[ask] Could you tell me if the measured CTG-3D luminescence at 96 h of CC1(C)CCC(c2ccc(Cl)cc2)=C(CN2CCN(c3ccc(C(=O)NS(=O)(=O)c4ccc(N[C@H](CCN5CCOCC5)CSc5ccccc5)c(S(=O)(=O)C(F)(F)F)c4)cc3)CC2)C1 [navitoclax] reaches 2 or more?
[reply] false (0)

This collection of values is drawn from the supplement of paper PMC8882468.
